- ASSAY_REMARKS: binders of probe aFGF2 on microarray, primary screen, stem cell growth factor project, biochemical, small-molecule microarray, fluorescence 635/667 (AID 1067);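 further: measures binding of biotinylated aFGF2 protein to printed compounds on slides; z-score merges feature fluorescence and signal-to-noise across triplicate slides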
- EXPERIMENTAL_PARAMETERS: higher = more signal
composite z-score listing for selected compounds.

COMPOUND: COCCCNC(=O)[C@@]1(Sc2ccc(C)cc2)CC(=O)N(C2Cc3ccccc3C2)[C@@H]1c1ccc(CO)cc1I
composite z-score: -0.156

COMPOUND: C=C[C@@H](C)[C@H](OC(=O)Nc1ccc(SC)cc1)c1ccc(OCCO)cc1
composite z-score: -0.215

COMPOUND: Cc1ccc(S[C@]2(C(=O)NCCN3CCOCC3)CC(=O)N(Cc3ccccc3C(F)(F)F)[C@@H]2c2ccc(CO)cc2I)cc1
composite z-score: -0.0876

COMPOUND: COc1ccc(NN2C(C(O)c3ccccn3)C=CC3C(=O)N(C4CCCCC4)C(=O)C32)cc1 (centres undefined)
composite z-score: 0.0944

====

- ASSAY_REMARKS: E. coli growth modulation, two-sided OD650, primary screen, E. coli filamentation project, strain DRC41, 24 h (AID 1093);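 further: MC1000 strain lacking acrAB efflux and sulA so SOS filamentation is blocked; test concentration not given here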
- EXPERIMENTAL_PARAMETERS: OD650, 24 h, higher = more signal, called active from +8 up or from −8 down
Decision: z-score compared against -0.2; not below it gives criterion met, below it gives criterion not met.

COMPOUND: C=CCC(OC(C)=O)[C@@H]1[C@@H](N(Cc2ccc(-c3ccccc3)cc2)C(=O)c2cccc3ccccc23)c2cc(OCCCO)ccc2N1C(=O)Cc1ccc2ccccc2c1 (stereo partly drawn)
ASSIGNED_CLASS: criterion met

COMPOUND: C=CCOC(=O)[C@@H]1[C@H]2C(=O)O[C@H](c3ccccc3)[C@H](c3ccccc3)N2[C@H](c2ccc(OCCOC(=O)[C@H]3C[C@H]4C(=O)N[C@@H](CCCCN(C)C)C(=O)N4[C@H]3c3cccc(OCCO)c3)cc2)[C@@]12C(=O)Nc1ccc(I)cc12
ASSIGNED_CLASS: criterion met

COMPOUND: O=c1cccc(-c2cccc(Cl)c2)o1
ASSIGNED_CLASS: criterion met

COMPOUND: CN(C)CCCCNC(=O)[C@H]1C[C@H]2C(=O)N3CCC[C@H]3C(=O)N2[C@H]1c1ccc(O)cc1
ASSIGNED_CLASS: criterion met

COMPOUND: COC(=O)C1(Cc2ccccc2)C=C2C(=C(C(C)C)C(=O)C2C)CN1 (stereo not drawn)
ASSIGNED_CLASS: criterion not met

COMPOUND: COC(=O)[C@@]1(Cc2ccccc2)[C@H]2c3cc(C(=O)N4CCCC4)n(Cc4ccsc4Br)c3C[C@H]2CN1C(=O)c1ccccc1
ASSIGNED_CLASS: criterion not met

COMPOUND: COCCOC(=O)N1C(=O)[C@@]2(c3cc(C#CC4=CCCCC4)ccc31)[C@H](C(=O)N1CCN(c3ncccn3)CC1)[C@H]1C(=O)O[C@H](c3ccccc3)[C@H](c3ccccc3)N1[C@@H]2c1ccc(O)cc1
ASSIGNED_CLASS: criterion not met

COMPOUND: CCC[C@@H]1C[C@@]1(CCC)[C@@H](NP(=O)(c1ccccc1)c1ccccc1)c1ccc(Cl)cc1
ASSIGNED_CLASS: criterion not met

COMPOUND: CC(C)(C)OC(=O)CC[C@@]1(C(=O)O)N=C(c2ccc(OCCCO)cc2)O[C@@H]1c1ccccc1
ASSIGNED_CLASS: criterion met

COMPOUND: Cc1ccc(C(C)CC(O)C2C=CC3C(=O)N(c4ccccc4)C(=O)C3N2Nc2ccc(C(C)C)cc2)o1 (stereo not drawn)
ASSIGNED_CLASS: criterion not met

COMPOUND: C=C(CCCC)C(=O)CC[C@@H](OC(=O)c1ccccc1-c1ccccc1C(=O)O)c1cccc(OCCO)c1
ASSIGNED_CLASS: criterion met

COMPOUND: O=C1C[C@@](C(=O)NCC(F)(F)F)(c2ccc([N+](=O)[O-])cc2)[C@@H](c2ccc(CO)cc2)N1C1CCCCC1
ASSIGNED_CLASS: criterion met

COMPOUND: COC(=O)C(CC#Cc1ccc2c(c1)[C@]1(C(=O)N2)[C@H](C(=O)O)[C@H]2C(=O)O[C@H](c3ccccc3)[C@H](c3ccccc3)N2[C@@H]1c1ccccc1OCCO)C(=O)OC
ASSIGNED_CLASS: criterion not met

COMPOUND: CCOC(=O)C[C@H]1[C@H](OC(=O)c2ccc(C(=O)c3ccccc3)cc2)[C@@H](NC(=O)c2ccc3ccccc3c2)c2cc(OCCCO)ccc2N1C(=O)c1ccccc1
ASSIGNED_CLASS: criterion not met

COMPOUND: CCCc1cccc(=O)o1
ASSIGNED_CLASS: criterion not met

COMPOUND: COc1ccc(C(O)C2C=CC3C(=O)N(Cc4ccccc4)C(=O)C3N2n2cnnc2)c2ccccc12 (stereo not drawn)
ASSIGNED_CLASS: criterion not met

COMPOUND: COCCCNC(=O)[C@@]1(Sc2ccc(C)cc2)CC(=O)N(C2Cc3ccccc3C2)[C@@H]1c1ccc(CO)cc1I
ASSIGNED_CLASS: criterion not met

COMPOUND: O=C(CS)NCCCCCCNC(=O)[C@H]1C[C@H]2C(=O)N[C@@H](Cc3ccccc3)C(=O)N2[C@H]1c1cccc(OCCO)c1
ASSIGNED_CLASS: criterion not met

COMPOUND: CC1CC/C=C\[C@H]2OC34C=CCN(CCN5CCOCC5)C(=O)[C@H]3N(CCO)C(=O)[C@@H]4C2C(=O)O1 (stereo partly drawn)
ASSIGNED_CLASS: criterion met

COMPOUND: CON(C)C(=O)C=C1C[C@@H](c2cccc(Cl)c2)O[C@@H](c2cccc(Cl)c2)O1
ASSIGNED_CLASS: criterion met

COMPOUND: O=C1OCC=C[C@H]2OC34C=CCN(c5ccc(Cl)cc5)C(=O)[C@H]3N(CCCCCO)C(=O)[C@@H]4[C@@H]12 (stereo partly drawn)
ASSIGNED_CLASS: criterion met

COMPOUND: C=CCOC(=O)[C@H]1[C@@H]2C(=O)O[C@@H](c3ccccc3)[C@@H](c3ccccc3)N2[C@@H](c2ccc(OCCOC(=O)[C@H]3C[C@H]4C(=O)N[C@@H](Cc5ccccc5)C(=O)N4[C@H]3c3cccc(OCCO)c3)cc2)[C@]12C(=O)Nc1ccc(I)cc12
ASSIGNED_CLASS: criterion met

COMPOUND: COc1ccc(C#Cc2ccc3c(c2)[C@]2(C(=O)N3)[C@H](C(=O)N3CCc4cc(OC)c(OC)cc4C3)[C@H]3C(=O)O[C@H](c4ccccc4)[C@H](c4ccccc4)N3[C@@H]2c2ccc(O)cc2)cc1
ASSIGNED_CLASS: criterion not met

COMPOUND: O=C(N1CCCCC1)[C@@]1(Cc2ccccc2)COC(c2ccc(OCCCO)cc2)=N1
ASSIGNED_CLASS: criterion met

COMPOUND: CC(C)CNC(=O)[C@@H]1c2ccccc2C(=O)N(Cc2cc(F)cc(C(F)(F)F)c2)[C@H]1c1ccc(CO)cc1
ASSIGNED_CLASS: criterion met

COMPOUND: CN(C)C(=O)[C@]1(CCC(=O)OC(C)(C)C)N=C(c2ccc(OCCCO)cc2)O[C@@H]1c1ccccc1
ASSIGNED_CLASS: criterion met

COMPOUND: COC(=O)[C@@]1(Cc2ccc(F)cc2)[C@H]2c3cc(C(=O)N4CCCC4)n(CCc4c[nH]c5ccc(OC)cc45)c3C[C@H]2CN1C(=O)c1ccccc1
ASSIGNED_CLASS: criterion not met

COMPOUND: NC(=O)N1C(=O)C2C(C1=O)C1C=C(CCCO)C2C(c2cccs2)N1Cc1cc2c(cc1Br)OCO2 (stereo not drawn)
ASSIGNED_CLASS: criterion met

====

- ASSAY_REMARKS: E. coli acrAB mutant growth effects, primary screen, E. coli filamentation inducers, strain DRC39, OD650, 24 h (AID 1178);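 further: growth measured as culture turbidity by optical density at 650 nm; test concentration not given here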
- EXPERIMENTAL_PARAMETERS: higher = more signal, called active from +8 up or from −8 down

COMPOUND: Cc1ccc(S[C@]2(C(=O)O)CC(=O)N(Cc3ccccc3Cl)[C@@H]2c2ccc(CO)cc2)cc1
z-score: 0.21

COMPOUND: CC(C)(C)OC(=O)CC[C@]1(C(=O)NCCN2CCOCC2)N=C(c2ccc(OCCCO)cc2)O[C@H]1c1ccccc1
z-score: -0.0656

COMPOUND: O=C(O)[C@H]1C[C@H]2C(=O)N3CCC[C@H]3C(=O)N2[C@H]1c1cccc(OCCO)c1
z-score: 0.481

COMPOUND: COC(=O)[C@@]1(Cc2ccc(OC)cc2)[C@H]2c3cc(C(=O)N(C)C)n(Cc4ccccc4)c3C[C@H]2CN1C(=O)c1ccccc1
z-score: 0.111

COMPOUND: COc1ccc([Si](C)(C)[C@H]2[C@H](CCn3cc([C@H](O)c4ccccc4)nn3)O[C@@]3(C(=O)N(Cc4ccc(N5CCC5=O)cc4)c4ccccc43)[C@@H]2C)cc1
z-score: 0.0302

COMPOUND: O=C1c2ccccc2[C@](Cc2ccccc2I)(C(=O)NCCN2CCOCC2)[C@H](c2ccc(CO)cc2)N1Cc1ccccc1
z-score: -0.256

COMPOUND: O=C1O[C@@H](c2ccccc2)[C@@H](c2ccccc2)N2[C@@H](c3ccccc3OCCO)[C@]3(C(=O)Nc4ccc(C#CCCO)cc43)[C@@H](C(=O)Nc3nc4ccccc4s3)[C@H]12
z-score: -0.233

COMPOUND: CCOC(=O)[C@H]1C/C=C/C[C@H](C(=O)OCC)C(=O)O[C@H]2[C@@H](OC)O[C@H](CO)[C@@H](OC(=O)Nc3ccc(OC)cc3)[C@@H]2OC1=O
z-score: 0.391

COMPOUND: COC(=O)[C@@]1(Cc2ccccc2)[C@H]2c3cc(C(=O)N4CCCC4)n(Cc4ccsc4Br)c3C[C@H]2CN1C(=O)c1ccccc1
z-score: -0.28

COMPOUND: COc1cc2c(cc1OC)CN(C(=O)[C@H]1[C@@H]3C(=O)O[C@@H](c4ccccc4)[C@@H](c4ccccc4)N3[C@@H](c3ccc(OCCO)cc3)[C@]13C(=O)Nc1ccc(C#CCCO)cc13)CC2
z-score: -0.321

COMPOUND: Cc1ccc(S[C@]2(C(=O)NC3CC3)CC(=O)N(Cc3ccccc3Cl)[C@@H]2c2ccc(CO)cc2I)cc1
z-score: 0.17

COMPOUND: COc1ccccc1CN1C(=O)c2ccccc2[C@@H](C(=O)NC(C)C)[C@@H]1c1ccc(CO)cc1
z-score: 0.686

COMPOUND: COCCOC(=O)N1C(=O)[C@@]2(c3cc(C#CC4=CCCCC4)ccc31)[C@H](C(=O)N1CCN(c3ncccn3)CC1)[C@H]1C(=O)O[C@H](c3ccccc3)[C@H](c3ccccc3)N1[C@@H]2c1ccc(O)cc1
z-score: -0.766

COMPOUND: COCCOC(=O)N1C(=O)[C@@]2(c3cc(C#CC4(O)CCCCCC4)ccc31)[C@H](C(N)=O)[C@H]1C(=O)O[C@H](c3ccccc3)[C@H](c3ccccc3)N1[C@@H]2c1ccccc1OCCO
z-score: -0.735

COMPOUND: O=c1cccc(-c2ccc(C(F)(F)F)cc2)o1
z-score: -0.865

COMPOUND: C[C@@H]1ON(c2ccc(C(=O)OC(C)(C)C)cc2)[C@H](c2ccc(Br)cc2)[C@H]1C(=O)N1C(=O)OC[C@H]1Cc1ccccc1
z-score: 0.488

COMPOUND: COc1ccc([Si](C)(C)[C@@H]2[C@@H](CC(=O)N3CCC[C@H]3CO)O[C@]3(C(=O)N(Cc4ccc(N5C(=O)c6cccc7cccc5c67)cc4)c4ccccc43)[C@H]2C)cc1
z-score: 0.3

COMPOUND: COC(=O)[C@@]1(Cc2ccccc2)[C@H]2c3cc(C(=O)N4CCCC4)[nH]c3C[C@H]2CN1C(=O)c1ccccc1
z-score: -0.79

COMPOUND: C=CCOC(=O)[C@@H]1[C@H]2C(=O)O[C@H](c3ccccc3)[C@H](c3ccccc3)N2[C@H](c2ccc(OCCOC(=O)[C@H]3C[C@H]4C(=O)N[C@@H](CCCC[N+](C)(C)C)C(=O)N4[C@H]3c3ccc(O)cc3)cc2)[C@@]12C(=O)Nc1ccc(I)cc12
z-score: -0.877

COMPOUND: [N-]=[N+]=Nc1ccccc1C[C@@]1(C(=O)O)N=C(c2ccc(OCCCO)cc2)O[C@@H]1c1ccccc1
z-score: -0.26

COMPOUND: COc1c(C)cc(-c2cc3c(c(-c4ccccc4)n2)[Si](C(C)C)(C(C)C)OC3)cc1C
z-score: 0.762

COMPOUND: CC(C)NC(=O)[C@@]1(C)c2ccccc2C(=O)N(C(C)C)[C@H]1c1ccc(CO)cc1
z-score: 0.0378

COMPOUND: [N-]=[N+]=NCc1ccccc1C[C@@]1(C(N)=O)N=C(c2ccc(OCCCO)cc2)O[C@@H]1c1ccccc1CN=[N+]=[N-]
z-score: 0.178

COMPOUND: C=CCOC(=O)[C@H]1[C@@H]2C(=O)O[C@@H](c3ccccc3)[C@@H](c3ccccc3)N2[C@@H](c2ccc(OCCOC(=O)[C@H]3C[C@H]4C(=O)N[C@@H](Cc5ccccc5)C(=O)N4[C@H]3c3ccc(O)cc3)cc2)[C@]12C(=O)Nc1ccc(I)cc12
z-score: -0.359

COMPOUND: CC=CC(O)C1C=CC2C(=O)N(c3ccccc3)C(=O)C2N1Nc1ccccc1 (stereo unspecified)
z-score: 0.176

COMPOUND: COc1cc(CO)cc(I)c1O[C@H]1C=C(C(=O)NCCO)C[C@@H](NCc2ccccc2F)[C@@H]1O
z-score: 0.491
